Attribution: the NIST ThermoML archive (doi:10.1016/j.jct.2017.06.020)

Listing: refractive index of selected compounds
- Experiment Summary: refractive index (Na D-line) (dimensionless); xn = mol fraction of the nth substance listed
- Assay Context: 298.15 K; 101.3 kPa; Liquid; Standard Abbe refractometry; x2 = 0.7
The answer should be written as a number, with no unit following it.

As a guide, the following entries are already answered.
CCCCCO [pentan-1-ol] + C[S+](C)[O-]: 1.4488
CC(C)CCO [3-methylbutan-1-ol] + CCC(C)=O: 1.3863
CC(C)CCO [3-methylbutan-1-ol] + C[S+](C)[O-]: 1.4459

Shift focus to the following entry.
For the compound CC(C)CCO [3-methylbutan-1-ol] + CC(C)=O , what refractive index is on record?
1.3751

###

- Experiment Summary: relative permittivity at various frequencies (dimensionless); xn = mol fraction of the nth substance listed
- Assay Context: 298.15 K; 101.3 kPa; Liquid; Frequency=0.01 MHz; Coaxial cylinder capacitor; x2 = 0.9
Measured relative permittivity by item
Just the number, please.

Reference set, count: 4
CC(C)CCO [3-methylbutan-1-ol] + C[S+](C)[O-]: 41.68
CCCCCO [pentan-1-ol] + CC(C)=O: 19.36
CC(C)CCO [3-methylbutan-1-ol] + CCC(C)=O: 17.33
CCCCCO [pentan-1-ol] + C[S+](C)[O-]: 41.95

Consider the record given below.
Return reported relative permittivity; argument: CC(C)CCO [3-methylbutan-1-ol] + CC(C)=O
19.21

###

- Experiment Summary: refractive index (Na D-line) (dimensionless); xn = mol fraction of the nth substance listed
- Assay Context: 298.15 K; 101.3 kPa; Liquid; Standard Abbe refractometry; x2 = 0.9
Assay Readout: refractive index
Answer field: number only, no words.

CC(C)CCO [3-methylbutan-1-ol] + C[S+](C)[O-]: 1.4651
CCCCCO [pentan-1-ol] + CC(C)=O: 1.3639
CCCCCO [pentan-1-ol] + C[S+](C)[O-]: 1.4675
CC(C)CCO [3-methylbutan-1-ol] + CC(C)=O: 1.3634

Now consider a different molecule.
Fill in: refractive index of CC(C)CCO [3-methylbutan-1-ol] + CCC(C)=O is ___
1.38

###

- Experiment Summary: refractive index (Na D-line) (dimensionless); xn = mol fraction of the nth substance listed
- Assay Context: 298.15 K; 101.3 kPa; Liquid; Standard Abbe refractometry; x2 = 0.5
± gives the expanded uncertainty stated by the source.
Assay Readout: refractive index

Which measured refractive index value corresponds to CC(C)CCO [3-methylbutan-1-ol] + CC(C)=O ?
1.3854 ± 0.0011

Entry to check: CCCCCO [pentan-1-ol] + CC(C)=O
1.3882 ± 0.0011

Also CC(C)CCO [3-methylbutan-1-ol] + C[S+](C)[O-] , if possible.
1.4305 ± 0.0011

Same thing, different compound: CCCCCO [pentan-1-ol] + C[S+](C)[O-]
1.4339 ± 0.0011

###

Collected relative permittivity values appear next to each entry.
- Experiment Summary: relative permittivity at various frequencies (dimensionless); xn = mol fraction of the nth substance listed
- Assay Context: 298.15 K; 101.3 kPa; Liquid; Frequency=0.01 MHz; Coaxial cylinder capacitor; x2 = 0.8
± gives the expanded uncertainty stated by the source.

CC(C)CCO [3-methylbutan-1-ol] + CCC(C)=O: 16.43 ± 0.04
CCCCCO [pentan-1-ol] + CC(C)=O: 18.21 ± 0.05
CC(C)CCO [3-methylbutan-1-ol] + C[S+](C)[O-]: 37.01 ± 0.1
CCCCCO [pentan-1-ol] + C[S+](C)[O-]: 37.33 ± 0.1

GET /values?readout=relative permittivity&item= CC(C)CCO [3-methylbutan-1-ol] + CC(C)=O
17.99 ± 0.05

###

- Experiment Summary: refractive index (Na D-line) (dimensionless); xn = mol fraction of the nth substance listed
- Assay Context: 298.15 K; 101.3 kPa; Liquid; Standard Abbe refractometry; x2 = 0.3
Numbers after ± are expanded uncertainties.
In this section we review reported refractive index values for a set of compounds.

Some compounds with recorded refractive index:
CCCCCO [pentan-1-ol] + C[S+](C)[O-]: 1.4217 ± 0.0011
CC(C)CCO [3-methylbutan-1-ol] + CCC(C)=O: 1.3972 ± 0.0011
CC(C)CCO [3-methylbutan-1-ol] + C[S+](C)[O-]: 1.4168 ± 0.0011

# context switch: different compound, same refractive index
Value lookup for refractive index; key = CC(C)CCO [3-methylbutan-1-ol] + CC(C)=O
1.3936 ± 0.0011

###

- Experiment Summary: refractive index (Na D-line) (dimensionless); xn = mol fraction of the nth substance listed
- Assay Context: 298.15 K; 101.3 kPa; Liquid; Standard Abbe refractometry; x2 = 0.8
Examples of compounds with documented refractive index follow.
Lab note: record just the number, no unit beside it.

CC(C)CCO [3-methylbutan-1-ol] + CCC(C)=O: 1.3829

Now consider a different compound.
refractive index lookup needed for CC(C)CCO [3-methylbutan-1-ol] + C[S+](C)[O-] , thanks.
1.4549

###

- Experiment Summary: relative permittivity at various frequencies (dimensionless); xn = mol fraction of the nth substance listed
- Assay Context: 298.15 K; 101.3 kPa; Liquid; Frequency=0.01 MHz; Coaxial cylinder capacitor; x2 = 0.4
Assay Readout: relative permittivity
Quick one: just the number, no unit, thanks!

CC(C)CCO [3-methylbutan-1-ol] + CCC(C)=O: 14.44

Item under review: CC(C)CCO [3-methylbutan-1-ol] + CC(C)=O . Reported relative permittivity?
14.96

Now give it for CCCCCO [pentan-1-ol] + C[S+](C)[O-] too.
22.93

What would you report for CC(C)CCO [3-methylbutan-1-ol] + C[S+](C)[O-] ?
22.45

###

- Assay Context: 298.15 K; 101.3 kPa; Liquid; Vibrating tube method
Parameter mass density: see the listing below.
Give a bare numeral; the unit kg/m3 is implied.

Here's what some known entries look like.
C[S+](C)[O-] [dimethyl sulfoxide]: 1096.07
CC(C)=O [acetone]: 784.42
C1CCCCC1 [cyclohexane]: 773.58
CCC(C)=O [butanone]: 799.75

For the molecule shown here, CC(=O)c1ccccc1 [acetophenone] , give the reported mass density.
1022.77

Subsequent entry: CC(C)CCO [3-methylbutan-1-ol]
807.16

Likewise for CCCCCO [pentan-1-ol] ?
811.1

###

Measured refractive index values are reported for all entries that follow.
- Experiment Summary: refractive index (Na D-line) (dimensionless); xn = mol fraction of the nth substance listed
- Assay Context: 298.15 K; 101.3 kPa; Liquid; Standard Abbe refractometry; x2 = 0.2
Output: the number by itself.

Example results:
CCCCCO [pentan-1-ol] + CC(C)=O: 1.4015
CC(C)CCO [3-methylbutan-1-ol] + CC(C)=O: 1.3981
CC(C)CCO [3-methylbutan-1-ol] + C[S+](C)[O-]: 1.4118

// next item, refractive index requested
Quick one: refractive index for CC(C)CCO [3-methylbutan-1-ol] + CCC(C)=O ?
1.4001

###

compounds and their reported relative permittivity
- Experiment Summary: relative permittivity at various frequencies (dimensionless); xn = mol fraction of the nth substance listed
- Assay Context: 298.15 K; 101.3 kPa; Liquid; Frequency=0.01 MHz; Coaxial cylinder capacitor; x2 = 0.3
Keep the answer to the number alone.

Record excerpt, results attached:
CCCCCO [pentan-1-ol] + C[S+](C)[O-]: 20.24
CC(C)CCO [3-methylbutan-1-ol] + CC(C)=O: 14.71
CC(C)CCO [3-methylbutan-1-ol] + C[S+](C)[O-]: 19.79

We next turn to a different compound, shown below.
Which relative permittivity value belongs to CC(C)CCO [3-methylbutan-1-ol] + CCC(C)=O ?
14.33

###

- Experiment Summary: relative permittivity at various frequencies (dimensionless)
- Assay Context: 298.15 K; 101.3 kPa; Liquid; Frequency=0.01 MHz; Coaxial cylinder capacitor
Assay Readout: relative permittivity
Give your answer as a number; write no unit.

So what does the record say about relative permittivity for `CC(C)=O` ?
20.69

Next entry: `CC(C)CCO`
14.96

`CCCCCO` ?
15.12

Would you kindly repeat that for `CC(=O)c1ccccc1` ?
17.51

How about `CCC(C)=O` ?
18.38

Proceed to `C1CCCCC1`
2.02

Now consider C[S+](C)[O-] [dimethyl sulfoxide] and answer again.
46.71

###

# refractive index annotations
- Experiment Summary: refractive index (Na D-line) (dimensionless)
- Assay Context: 298.15 K; 101.3 kPa; Liquid; Standard Abbe refractometry
// response body must contain only the number

A selection of reference data follows.
CC(C)CCO: 1.4048
CCC(C)=O: 1.376
CC(C)=O: 1.3564
CC(=O)c1ccccc1: 1.5318
C[S+](C)[O-] [dimethyl sulfoxide]: 1.4767

Entry `C1CCCCC1` : reported refractive index = ?
1.4234

What about this compound? `CCCCCO`
1.4082
